Reference source: patent US20190322750A1

SUBJECT_OF_TEST: mouse PD-L1 protein (mouse, UniProt Q9EP73 19-238, limits assumed)
Sequence (Q9EP73 19-238 limits assumed): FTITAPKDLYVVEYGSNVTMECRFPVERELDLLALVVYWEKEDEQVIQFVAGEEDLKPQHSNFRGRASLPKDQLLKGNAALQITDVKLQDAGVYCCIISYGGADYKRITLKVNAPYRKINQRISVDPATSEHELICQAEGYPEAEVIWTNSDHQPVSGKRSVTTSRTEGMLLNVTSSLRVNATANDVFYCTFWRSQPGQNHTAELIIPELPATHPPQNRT
PROTOCOL: ELISA on coated antigen, column mPD-L1
Measured absorbance at 490 nm of individual entries

| BINDER | absorbance at 490 nm |
| --- | --- |
| PDL1-11A7 (antibody, V domains shown, Only FR/CDR pieces are tied to the clone) VH: QVQLVQSGAEVKKPGASVKVSCKVSGYTLTELSMHWVRQAPGKGLEWMGGFDPEDGETIYAQKFQGRVTMTEDTSTDTAYMELSSLRSEDTAVYYCARDPWGGYYGMDVWGQGTTVTVSS VL: DIQMTQSPSSVSASVGDRVTINCRASQGIRTWLAWYQQKPGKAPKLLIYAASNLQSGVPSRFSGSGSGTDFTLTIASLQPEDFATYYCQQANSFPLTFGGGTKVEIK | 0.1 |
| PDL1-31E6 (antibody, V domains shown, Only FR/CDR pieces are tied to the clone) VH: QVQLVQSGAEVKKPGSSVKVSCKASGGTFSSYAISWVRQAPGQGLEWMGGIIPIFGTANYAQKFQGRVTITADESTSTAYMELSSLRSEDTAVYYCARGGRSFGAFDSWGQGALVTVSS VL: DIQMTQSPATLSLSPGERATLSCTASQSISSYLAWYQQKPGQAPRLLIYDSSNRATGIPARFSGSGSGTAFTLTISSLEPEDFAVYFCQQRGQWPLTFGGGTKVDIK | 1.3 |
| PDL1-30B1 (antibody, V domains shown, Only FR/CDR pieces are tied to the clone) VH: QVQLVESGGGVVQPGRSLRLSCAASGFTFSSYAMHWVRQGPGKGLEWVAVISYDGSNEFYADSVKGRFTISRDNSKNTLYLQMNSLRAEDTAVYYCARGDYNGVYMDVWGQGTTVTVSS VL: DIVMTQTPLSLSVTPGQPASISCKSSQSLLHSDGKTYLYWYLQKPGQSPQLLIYEVSKRFSGVPDRFSGSGSGTDFTLKIGRVEAEDVGVYYCMQGLHLPYTFGQGTKLEIK | 0.1 |
